src = PubChem BioAssay (NCI)

Listing: growth inhibition of selected molecules
Test: NCI Yeast Anticancer Drug Screen. Data for the rad14 strain (AID 159);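 note: 0% = growth of vehicle-treated control cultures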
Conditions: S. cerevisiae rad14 strain growth inhibition; at 11.0 µM; active compounds read high
This is part of a sample that, as a whole, favours compounds with a hit. Of some 79,000 tested, about 15% had one in any assay.
measured-quantity: growth inhibition (%)

1) CC(C)c1[nH]nc(C(N)=O)c1N=NN(C)C = 6
2) CCC(NC(C)c1ccccc1)C(=O)c1ccc(OCc2ccccc2)c(OCc2ccccc2)c1 (stereo unspecified) = 3
3) CCN(CC)CC(O)C1CCC(c2ccccc2)CC1 (stereo unspecified) = 41
4) O=Nn1c2ccccc2c2cc([N+](=O)[O-])ccc21 = 1
5) COC(=O)CSc1nnc(CSc2ccc(Cl)cc2)n1-c1ccccc1 = 10
6) NNC(=S)Nc1cccc2ccccc12 = -50
